Test: Viability qHTS for spleen associated tyrosine kinase inhibitor (SYKi) drug resistant MV4-11 cells (AID 1963824); note: nearly all actives have a fitted effect of over 35% in size
Conditions: SYKi-resistant MV4-11 viability, CellTiter-Glo, 72 h; series mostly up to 45 µM
Description: Department of Medicine, Hematology/Oncology University Hospital Frankfurt, Germany. Trials have shown promising clinical activity of the selective SYK inhibitor entospletinib in patients with high expressing HOXA9/MEIS1 acute leukemias. […] 7; Detection; Luminescence; ViewLux plate reader (PerkinElmer). […] 1. Quantitative high-throughput screening (qHTS) of small molecule compounds was conducted on drug resistant SYKi MV4-11 cell line. […] 7. Luminescence was measured on a ViewLux plate reader (PerkinElmer).
Inconclusive results are not listed. Active and inactive are the calls of the source. Calls come from the whole dose curve; as a rule, active = well fitted cell-killing curve with a large enough effect; inconclusive = small, poorly fitted or top-dose-only effect, or effect the other way; inactive = no such curve, though single readings can be large or run the other way.
observed-property: viability, % of control

molecule	viability, % of control
CC1(C)CC[C@]2(C(=O)O[C@@H]3O[C@H](CO[C@@H]4O[C@H](CO)[C@@H](O)[C@H](O)[C@H]4O[C@@H]4O[C@H](CO)[C@@H](O)[C@H](O)[C@H]4O)[C@@H](O)[C@H](O[C@@H]4O[C@H](CO)[C@@H](O)[C@H](O)[C@H]4O)[C@H]3O)CC[C@]3(C)C(=CCC4[C@@]5(C)CC[C@@H](O)[C@@](C)(C(=O)O[C@@H]6O[C@H](CO)[C@@H](O)[C@H](O)[C@H]6O)C5CC[C@]43C)[C@@H]2C1 (stereo partly drawn)	80.3% [at 9.25 µM] (inactive)
CC(=O)OC[C@@]12[C@H](O)C[C@]3(C)C(=CCC4[C@@]5(C)CC[C@H](O[C@@H]6O[C@H](C(=O)O)[C@@H](O[C@@H]7O[C@H](CO)[C@@H](O)[C@H](O)[C@H]7O)[C@H](O)[C@H]6O[C@@H]6O[C@H](CO)[C@@H](O)[C@H](O)[C@H]6O)[C@](C)(CO)C5CC[C@]43C)[C@@H]1CC(C)(C)[C@@H](OC(C)=O)[C@@H]2O (stereo partly drawn)	95.8% [at 9.25 µM] (inactive)
CC1(C)CC2C3=CCC4C5(C)CCC(OC6OC(C(=O)O)C(O)C(O)C6OC6OC(CO)C(O)C(O)C6OC6OC(CO)C(O)C(O)C6O)C(C)(CO)C5CCC4(C)C3(C)CCC2(C)C(OC2OCC(O)C(OC3OC(CO)C(O)C(O)C3O)C2O)C1O (stereo not drawn)	112% [at 9.25 µM] (inactive)
CCCCCN(C)CCC(O)(P(=O)(O)O)P(=O)(O)O	78.4% [at 4.97 µM] (inactive)
COC1CC(OC2CCC3(C)C(=CCC4C3CCC3(C)C(C(C)O)CCC43O)C2)OC(C)C1OC1OC(C)C(OC2OC(COC3OC(COC4OC(CO)C(O)C(O)C4O)C(O)C(O)C3O)C(O)C(O)C2O)C(OC)C1O (stereo not drawn)	97.1% [at 9.25 µM] (inactive)

Ask: Sample CC1OC(O[C@H]2[C@@H](O)C[C@@]3(C)C([C@H](O)C[C@]4(C)C3CC=C3C5CC(C)(C)CC[C@]5(C(=O)OC5OC(CO)C(O)C(O)C5OC5OCC(OC6OCC(OC7OCC(O)C(O)C7O)C(O)C6O)C(OC6OCC(O)(CO)C6O)C5O)CC[C@]34C)[C@]2(C)CO)C(O)C(O)C1O (stereo partly drawn) — what was its viability, % of control?
Result: 97% [at 9.25 µM] (inactive)

Ask: So what's the measured viability, % of control for this one? CC1(C)CC2C3=CCC4C5(C)CCC(OC6OC(CO)C(O)C(OC7OC(CO)C(O)C(OC8OC(CO)C(O)C(OC9OC(COC%10OC(CO)C(O)C(O)C%10O)C(O)C(O)C9O)C8O)C7O)C6O)C(C)(C)C5CCC4(C)C3(C)CCC2(C(=O)O)CC1O (stereo not drawn)
Result: 99.5% [at 9.25 µM] (inactive)

Ask: Can you look up the measured viability, % of control of CC1OC(OC2C(OC3C(O[C@H]4CC[C@@]5(C)C(CC[C@]6(C)C5C(=O)C=C5C7CC(C)(C)CC(O)[C@]7(C)CC[C@]56C)C4(C)C)OC(C(=O)O)C(O)C3O)OCC(O)C2O)C(O)C(O)C1O (stereo partly drawn) for me?
Result: 71.2% [at 9.25 µM] (inactive)

* * *

Assay: Viability qHTS for spleen associated tyrosine kinase inhibitor (SYKi) drug resistant MV4-11 cells (AID 1963824); note: nearly all actives have a fitted effect of over 35% in size
Details: SYKi-resistant MV4-11 viability, CellTiter-Glo, 72 h; series mostly up to 45 µM
Inconclusive results are not listed. Active and inactive are the calls of the source. Calls follow the shape of the dose curve; as a rule, active = well fitted cell-killing curve with a large enough effect; inconclusive = small, poorly fitted or top-dose-only effect, or effect the other way; inactive = no such curve, though single readings can be large or run the other way.
Your answer must be one of the following: active, inactive

Example cases with answers are listed next.
compound	label-value
CN(Cc1cc(Br)cc(Br)c1N)C1CCCCC1	active
Cc1nc(C#Cc2ccnc(Cl)c2)c(C)n1-c1ccc(OC(F)(F)F)cc1	active
CN1CCc2c(n(Cc3ccc(C(=O)NO)cc3)c3ccccc23)C1	active

Ask: Which outcome was entered for the compound `Cc1c(C(=O)NCc2cccnc2)nn(-c2ccc(Cl)cc2Cl)c1-c1ccc(Cl)cc1` in this test?
Result: inactive

Ask: In this assay, the call recorded for `CC(C)n1cnc2c(-c3cnc(N)nc3)nc(N3CCOCC3)nc21` was what?
Result: active

Ask: Answer briefly: the call reported for Cn1c(=O)c2c(ncn2CC(O)CO)n(C)c1=O (stereo not drawn) in this assay.
Result: inactive

Ask: Record request — test call for `CC[C@@H]1C(=O)O[C@]23C=C[C@@H]4C(C(=O)OC)=CO[C@H](O[C@@H]12)[C@@H]43`
Result: active

Ask: Would you mind telling me which call this test gave `C/C(=C\CO[C@@H]1O[C@H](CO[C@H]2OC[C@](O)(CO)[C@H]2O)[C@@H](O)[C@H](O)[C@H]1O)C(C)(C)O` ?
Result: inactive

Ask: Which outcome was entered for the compound O=S(=O)(c1cccc2ccccc12)n1ccc2ccc(N3CCN4CCCC4C3)cc21 (stereo not drawn) in this test?
Result: active

Ask: Hi, do you know how CC(C)Cc1ccc(C(C)C(=O)O)cc1 (stereo not drawn) came out in this test?
Result: inactive

Ask: Entry C[C@H]1O[C@H](O[C@H]2[C@H](O)[C@@H](O)[C@@H](O[C@H]3[C@H](O)[C@@H](O)C(O)O[C@@H]3CO)O[C@@H]2CO)[C@H](O)[C@@H](O)[C@@H]1N[C@H]1C=C(CO)[C@@H](O)[C@H](O)[C@H]1O (stereo partly drawn) : call = ?
Result: inactive

Ask: Called result for C=C1C(=O)O[C@@H]2[C@H]1CC(=O)[C@H](C)[C@@](O)(C(=O)/C=C/C)[C@H]2OC(=O)C(C)CC (stereo partly drawn)
Result: active

Ask: Identify the outcome logged in this assay for the compound shown: CC(C)=C1CC2C(CCC2(C)O)C(C)(O)CC1=O (stereo not drawn)
Result: inactive

Ask: Recorded call for `C=CC(=O)Nc1cc(Nc2nccc(-c3c[nH]c4ccccc34)n2)c(OC)cc1N(C)CCN(C)C` ?
Result: active

Ask: Returns: the outcome recorded for CC(COc1ccccc1)NN (stereo not drawn) in this assay.
Result: inactive

Ask: What did this assay record as the result for `OCCc1ccccc1` ?
Result: inactive

Ask: Called result for `Nc1nccc(-c2ccc3noc(-c4ccc(Cl)cc4)c3c2)n1`
Result: active

* * *

Test: Quantitative highthroughput screen to assess conditional lethalithy of P12 Ichikawa cells grown in Human Plasma-Like Medium with dialyzed fetal bovine serum (HPLM+ds) (AID 1963879); note: nearly all actives have a fitted effect of over 35% in size; note: potency is the fitted concentration of half-maximal effect
Details: ATP luminescence, 48 h; viability; series mostly up to 45.8 µM
Inconclusive results are not listed. Active and inactive are the calls of the source. The call rests on the fitted dose curve; in most records, active means well fitted cell-killing curve with a large enough effect; inconclusive means small, poorly fitted or top-dose-only effect; inactive means flat fitted curve, though single readings scatter.
observed-property: Potency

Here are 4 molecules together with their reported answers.
> print(dat)
                                   molecule            result
1  O=C1NC(=O)[C@@H](c2cn3c4c(cccc24)CCC3)[C@H]1c1c[nH]c2ccccc12  1.48 µM (active)
2  N#Cc1c(C2CCNCC2)cc(-c2c(O)cccc2OCC2CC2)nc1N          inactive
3  COC(=O)N1CCN(Cc2cccc(NC(=O)Nc3ccc(C)nc3)c2F)CC1          inactive
4  CCN[C@H]1C[C@H](C)S(=O)(=O)c2sc(S(N)(=O)=O)cc21          inactive

Ask: So what's the measured Potency for this one? CC(C(C)N1CC(=O)NC(=O)C1)N1CC(=O)NC(=O)C1 (stereo unspecified)
Result: 13.2 µM (active)

Ask: Which Potency value is on record for `Cc1cnc(-c2cc(N3CCN(C(=O)CCS(C)(=O)=O)CC3)ncc2Cl)c(C)c1` ?
Result: inactive

Ask: Looking for the measured Potency of `COc1ccc(C2=N[C@H](c3ccc(Cl)cc3)[C@H](c3ccc(Cl)cc3)N2C(=O)N2CCNC(=O)C2)c(OC(C)C)c1` , can you help?
Result: 10.5 µM (active)

Ask: Consider the molecule `CC(=O)NCC(=O)N1[C@H]2CC[C@H]1c1cc(Nc3ncc(C(F)(F)F)c(NC4CCC4)n3)ccc12` and give its measured Potency.
Result: 0.132 µM (active)

Ask: Please look up its Potency: `O=C1Nc2ccc(I)cc2C1=Cc1cc(Br)c(O)c(Br)c1`
Result: inactive

Ask: Can you share its Potency? I mean this molecule: `CCc1cccc(CC)c1NC(=O)N1Cc2[nH]nc(NC(=O)c3ccc(N4CCN(C)CC4)cc3)c2C1`
Result: 1.87 µM (active)

Ask: Recorded Potency of COC(=O)C1=C(C)NC(C)=C(C(=O)OC(C)C)C1c1cccc2nonc12 (stereo unspecified) , please.
Result: inactive

Ask: Fill in: Potency of `COc1nc(C)cnc1NS(=O)(=O)c1cccnc1-c1ccc(-c2nnco2)cc1` is ___
Result: inactive

Ask: Query (molecule): `COc1cccc([C@@H](C)NCCCc2ccccc2Cl)c1` ; field requested: Potency
Result: inactive
